# test target: human GLP-1 receptor (human, UniProt P43220 24-463)
# test name: cell-based or functional assay
*1 amine or outer side, *2 acyl side, *3 side chain or, on linkers, in order; H or OH if unused. Where no end group is shown, it is not given here. Side-chain parts run from the residue outwards. [ ]: non-standard residue; d: D form. The star is where a group is joined. Decanoyl(10-(4-HOOC-PhO)) = O=C(O)c1ccc(OCCCCCCCCCC(=O)*)cc1; αMePhe(2-F) = C[C@](N)(Cc1ccccc1F)C(=O)O; γGlu = O=C(O)[C@H](CCC(=O)[*:2])N[*:1]; αMeY = C[C@](N)(Cc1ccc(O)cc1)C(=O)O; αMeL = CC(C)C[C@](C)(N)C(=O)O; Orn = NCCC[C@H](N)C(=O)O; AEEA = NCCOCCOCC(=O)O; Aib = CC(C)(N)C(=O)O
readout: cAMP Emax (1.0% HSA)
Record the result as a number with its unit.

binder: Y[Aib]EGT[αMePhe(2-F)]TSDV[Aib]I[αMeL]LD[Orn]K([AEEA-AEEA-γGlu-Decanoyl(10-(4-HOOC-PhO))])AQ[Aib]EFI[dE][αMeY]LIEGGPSSGAPPPSK([AEEA-AEEA-γGlu-Decanoyl(10-(4-HOOC-PhO))])-NH2 [Example 380]
cAMP Emax (1.0% HSA): 94.5%

Problem: I have this binder here, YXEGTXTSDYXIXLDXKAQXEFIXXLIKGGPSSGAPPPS (Y-Aib-EGT-αMeF(2F)-TSDY-Aib-I-αMeL-LD-Orn-K((2-[2-(2-Amino-ethoxy)-ethoxy]-acetyl)2-(10-(4-carboxyphenoxy)decanoyl))AQ-Aib-EFI-(D-Glu)-αMeY-LIK((2-[2-(2-Amino-ethoxy)-ethoxy]-acetyl)2-(10-(4-carboxyphenoxy)decanoyl))GGPSSGAPPPS-NH2) [Example 396] , and I need its recorded cAMP Emax (1.0% HSA).
Result: 94.4%

Problem: Recorded cAMP Emax (1.0% HSA) of Y[Aib]EGT[αMePhe(2-F)]TSDV[Aib]I[αMeL]LD[Orn]QAQ[Aib]EFIK([AEEA-AEEA-γGlu-Decanoyl(10-(4-HOOC-PhO))])[αMeY]LIK([AEEA-AEEA-γGlu-Decanoyl(10-(4-HOOC-PhO))])GGPSSGAPPPS-NH2 [Example 446] , please.
Result: 105%

Problem: What value of cAMP Emax (1.0% HSA) has been reported for the following binder? Y[Aib]EGT[αMePhe(2-F)]TSDV[Aib]I[αMeL]LD[Orn]IAQ[Aib]K([AEEA-AEEA-γGlu-Decanoyl(10-(4-HOOC-PhO))])FI[dE][αMeY]LIEGGPSSGAPPPSK([AEEA-AEEA-γGlu-Decanoyl(10-(4-HOOC-PhO))])-NH2 [Example 383]
Result: 102%
